All figures here come from ChEMBL document CHEMBL3232922.

# experiment: Half life in rat microsomes
# Assay type: ADME, Microsome
I'd appreciate it if you could supply half-life values for the items below.
Could you give me the number in h? Just the number is fine.

Given item CC(C)c1cc(N2CC[C@@H](N)C2)nc(N)n1 , the value recorded as its half-life is 1.02

Given item CCc1cc(N2CC[C@@H](NC)C2)nc(N)n1 , the value recorded as its half-life is 1.05

Given item Nc1nc(C2CCCC2)cc(N2CCNCC2)n1 , the value recorded as its half-life is 1.43

* * *

# experiment: Tmax in Sprague-Dawley rat at 500 mg/kg, po
# Type: ADME, organism-based
# Set-up: dose 500 mg/kg, route oral
# conditionsUsed: in vivo
reportedEndpoint: Tmax (h)
Could you give me the number in h? Just the number is fine.

Given item CC(C)c1cc(N2CC[C@@H](N)C2)nc(N)n1 , the value recorded as its Tmax is 8

* * *

I'd appreciate it if you could supply C0 values for the items below.
# experiment: Initial plasma concentration in Sprague-Dawley rat at 2 mg/kg, iv
# Format: ADME, organism-based
# Design: dose 2 mg/kg, route intravenous
Could you give me the number in µM? Just the number is fine.

Given item CN[C@@H]1CCN(c2cc(Cc3ccccc3)nc(N)n2)C1 , the value recorded as its C0 is 19

Given item Nc1nc(C2CCCC2)cc(N2CCNCC2)n1 , the value recorded as its C0 is 25

Given item CC(C)c1cc(N2CC[C@@H](N)C2)nc(N)n1 , the value recorded as its C0 is 1.1

* * *

# experiment: Clearance in Balb/c mouse at 2 mg/kg, iv
# Assay type: ADME, organism-based
# Design: dose 2 mg/kg, route intravenous
# conditionsUsed: in vivo
reportedEndpoint: clearance (mL/min/kg)
Could you give me the number in mL/min/kg? Just the number is fine.

Given item CC(C)c1cc(N2CC[C@@H](N)C2)nc(N)n1 , the value recorded as its clearance is 40

* * *

# experiment: Half life in rat at 10 mg/kg, po
# Format: ADME, organism-based
# Parameters: dose 10 mg/kg, route oral
# conditionsUsed: in vivo
reportedEndpoint: half-life
Number first, unit second: that is the form wanted.

Given item Nc1nc(C2CCCC2)cc(N2CCNCC2)n1 , the value recorded as its half-life is 9 h

Given item CC(C)c1cc(N2CC[C@@H](N)C2)nc(N)n1 , the value recorded as its half-life is 7.5 h

Given item CCc1cc(N2CC[C@@H](NC)C2)nc(N)n1 , the value recorded as its half-life is 9.7 h

* * *

# experiment: Half life in Sprague-Dawley rat at 50 mg/kg, po
# Assay type: ADME, organism-based
# Set-up: dose 50 mg/kg, route oral
# conditionsUsed: in vivo
reportedEndpoint: half-life (h)
Could you give me the number in h? Just the number is fine.

Given item CC(C)c1cc(N2CC[C@@H](N)C2)nc(N)n1 [JNJ-39758979] , the value recorded as its half-life is 5.45

* * *

# experiment: Half life in mouse brain at 5 mg/kg, po administered as single dose by LC-MS/MS analysis
# Format: ADME, organism-based
# Set-up: dose 5 mg/kg, route oral
reportedEndpoint: half-life (h)
Could you give me the number in h? Just the number is fine.

Given item CC(C)c1cc(N2CC[C@@H](N)C2)nc(N)n1 , the value recorded as its half-life is 42.5
